Ref: paper PMC5062470

Test: Plasma exposure and brain penetration after single oral dose
Type: in vivo, mice
Conditions: male, mouse; brain; 3 mg/kg oral; CD-1 mice
attribute_measured: Cmax (ng/g)
Answers are plain numbers, in ng/g.

Lab book: Cmax of CC1(C)CCc2cc(OC[C@@H]3Cn4ccc(=O)nc4O3)ccc21 noted as 103

###

Biological target: UniProt:Q14416
Sequence (Q14416 19-872): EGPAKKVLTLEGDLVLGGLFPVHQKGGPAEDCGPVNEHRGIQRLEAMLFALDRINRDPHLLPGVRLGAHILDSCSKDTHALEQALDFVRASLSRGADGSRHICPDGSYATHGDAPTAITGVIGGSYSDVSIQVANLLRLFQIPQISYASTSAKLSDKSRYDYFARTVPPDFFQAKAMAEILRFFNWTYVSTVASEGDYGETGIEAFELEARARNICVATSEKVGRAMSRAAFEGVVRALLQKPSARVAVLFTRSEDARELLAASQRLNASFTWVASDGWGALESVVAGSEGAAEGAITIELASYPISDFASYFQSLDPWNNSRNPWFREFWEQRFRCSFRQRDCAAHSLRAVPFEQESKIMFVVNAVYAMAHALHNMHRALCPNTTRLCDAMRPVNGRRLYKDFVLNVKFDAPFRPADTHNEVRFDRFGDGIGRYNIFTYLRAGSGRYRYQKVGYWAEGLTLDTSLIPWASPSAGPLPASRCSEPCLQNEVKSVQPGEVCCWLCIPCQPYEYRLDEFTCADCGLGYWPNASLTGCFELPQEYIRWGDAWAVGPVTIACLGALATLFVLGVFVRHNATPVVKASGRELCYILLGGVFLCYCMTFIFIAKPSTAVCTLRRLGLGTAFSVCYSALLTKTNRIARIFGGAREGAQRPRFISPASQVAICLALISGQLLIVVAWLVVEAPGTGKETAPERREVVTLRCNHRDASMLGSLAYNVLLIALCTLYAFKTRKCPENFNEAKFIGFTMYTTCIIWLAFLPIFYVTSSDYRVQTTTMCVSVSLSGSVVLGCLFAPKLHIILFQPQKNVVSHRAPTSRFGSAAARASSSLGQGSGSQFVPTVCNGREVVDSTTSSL
Assay: Forskolin-stimulated cAMP accumulation in HEK293 cells
attribute_measured: pEC50
One number for each entry, as −log10 of the molar value.

Lab book: pEC50 of CC1(C)CCc2cc(OC[C@@H]3Cn4ccc(=O)nc4O3)ccc21 noted as 6.80

###

Let's go through some pKi measurements on rat mGluR3 (Rattus norvegicus, UniProt P31422) together.
Sequence (P31422 23-879): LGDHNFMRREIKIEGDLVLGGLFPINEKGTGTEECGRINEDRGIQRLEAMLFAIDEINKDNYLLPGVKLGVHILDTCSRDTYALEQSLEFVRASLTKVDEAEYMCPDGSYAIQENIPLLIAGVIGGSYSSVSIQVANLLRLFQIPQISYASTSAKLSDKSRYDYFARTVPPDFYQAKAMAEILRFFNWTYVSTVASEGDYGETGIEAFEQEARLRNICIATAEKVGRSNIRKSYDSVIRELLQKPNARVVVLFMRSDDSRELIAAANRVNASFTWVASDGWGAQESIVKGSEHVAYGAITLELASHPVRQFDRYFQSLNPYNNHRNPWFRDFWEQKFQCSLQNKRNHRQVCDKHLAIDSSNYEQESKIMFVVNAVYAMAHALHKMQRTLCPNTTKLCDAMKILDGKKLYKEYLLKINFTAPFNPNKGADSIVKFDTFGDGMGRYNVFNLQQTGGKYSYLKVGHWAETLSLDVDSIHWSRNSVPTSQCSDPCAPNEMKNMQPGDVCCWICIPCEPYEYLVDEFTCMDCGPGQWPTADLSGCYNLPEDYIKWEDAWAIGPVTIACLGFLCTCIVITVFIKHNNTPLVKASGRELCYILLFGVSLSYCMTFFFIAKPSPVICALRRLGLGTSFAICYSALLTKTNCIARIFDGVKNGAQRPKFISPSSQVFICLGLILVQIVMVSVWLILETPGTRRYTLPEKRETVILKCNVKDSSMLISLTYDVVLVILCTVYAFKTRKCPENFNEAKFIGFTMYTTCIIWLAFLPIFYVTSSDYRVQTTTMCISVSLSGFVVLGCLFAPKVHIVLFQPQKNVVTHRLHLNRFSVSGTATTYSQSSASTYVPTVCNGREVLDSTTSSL
Numbers only, as −log10 of the molar value.

N[C@@]1(C(=O)O)CS(=O)(=O)[C@H]2[C@H](C(=O)O)[C@H]21 [LY404039, reference compound]; 6.05

The record that follows has no pKi shown yet.
Lab book: pKi of N[C@@H](CCC(=O)O)C(=O)O [Glutamate, L-glutamatic acid, reference compound] noted as 6.40

###

Experiment: Plasma exposure and brain penetration after single oral dose
Type: in vivo, mice
Conditions: male, mouse; brain; 1 mg/kg oral; CD-1 mice
attribute_measured: Cmax (ng/g)
One number for each entry, in ng/g.

Lab book: Cmax of CC1(C)CCc2cc(OC[C@@H]3Cn4ccc(=O)nc4O3)ccc21 noted as 32

###

Assay: Plasma exposure and brain penetration after single oral dose
Assay type: in vivo, mice
Conditions: male, mouse; brain; 10 mg/kg oral; CD-1 mice
attribute_measured: Cmax (ng/g)
Answers are plain numbers, in ng/g.

Lab book: Cmax of CC1(C)CCc2cc(OC[C@@H]3Cn4ccc(=O)nc4O3)ccc21 [SAR218645] noted as 339

###

Test: Plasma exposure and brain penetration after single oral dose
Type: in vivo, mice
Settings: male, CD-1, mouse; plasma; 3 mg/kg oral
attribute_measured: AUC(0-inf) (ng·h/mL)
One number for each entry, in ng·h/mL.

Lab book: AUC(0-inf) of CC1(C)CCc2cc(OC[C@@H]3Cn4ccc(=O)nc4O3)ccc21 noted as 540

###

Molecular target: UniProt:P31421
Sequence (P31421 19-872): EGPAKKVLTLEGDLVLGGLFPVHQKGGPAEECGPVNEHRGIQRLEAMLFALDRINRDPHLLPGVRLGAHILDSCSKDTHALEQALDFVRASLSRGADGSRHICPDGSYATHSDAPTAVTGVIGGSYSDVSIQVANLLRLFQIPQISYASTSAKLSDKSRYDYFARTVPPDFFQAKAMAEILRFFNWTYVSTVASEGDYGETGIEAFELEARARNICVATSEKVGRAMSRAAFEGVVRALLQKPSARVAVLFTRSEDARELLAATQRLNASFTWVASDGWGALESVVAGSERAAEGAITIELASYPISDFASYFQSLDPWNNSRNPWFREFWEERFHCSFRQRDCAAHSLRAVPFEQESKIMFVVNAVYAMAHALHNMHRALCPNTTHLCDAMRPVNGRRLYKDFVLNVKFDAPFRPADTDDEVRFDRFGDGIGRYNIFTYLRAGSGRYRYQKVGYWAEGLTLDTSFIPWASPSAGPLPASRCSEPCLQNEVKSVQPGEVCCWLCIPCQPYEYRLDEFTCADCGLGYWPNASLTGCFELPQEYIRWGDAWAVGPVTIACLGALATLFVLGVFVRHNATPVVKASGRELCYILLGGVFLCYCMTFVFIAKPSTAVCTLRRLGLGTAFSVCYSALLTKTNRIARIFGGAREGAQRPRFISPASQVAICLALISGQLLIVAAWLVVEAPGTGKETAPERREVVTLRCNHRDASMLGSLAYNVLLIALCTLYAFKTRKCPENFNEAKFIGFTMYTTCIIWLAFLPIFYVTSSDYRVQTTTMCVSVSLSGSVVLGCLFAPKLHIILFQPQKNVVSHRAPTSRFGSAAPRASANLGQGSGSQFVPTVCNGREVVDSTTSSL
attribute_measured: Ki (µM)
Numbers only, in µM.

Lab book: Ki of N[C@@]1(C(=O)O)CS(=O)(=O)[C@H]2[C@H](C(=O)O)[C@H]21 [LY404039, reference compound] noted as 0.462

###

Test: Plasma exposure and brain penetration after single oral dose
Assay type: in vivo, mice
Settings: male, CD-1, mouse; plasma; 3 mg/kg oral; tlast 8 h
attribute_measured: AUC(0-t) (ng·h/mL)
Numbers only, in ng·h/mL.

Lab book: AUC(0-t) of CC1(C)CCc2cc(OC[C@@H]3Cn4ccc(=O)nc4O3)ccc21 noted as 540
